Test: Jurkat cell viability reduction – Jurkat E6.1, NIH starter set, primary screen (AID 364);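 further: 100% = cells treated with 4 µM doxorubicin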
Settings: Jurkat E6.1 viability, ATP luminescence, 48 h; at 4 µM; stronger effect = higher value
Among all 3,300 compounds or so, about 50 (2%) were called active. A selection follows. Potency and affinity values are given separately.
Let's look at some molecules and their measured inhibition.
ATTRIBUTE_MEASURED: inhibition (%)

>>> test_result("c1ccc2c(c1)[nH]c1c(N3CCSCC3)ncnc12")
29.6
>>> test_result("N#CC1=C(N)C(C#N)(C#N)[C@H](c2ccncc2)[C@H]2CN(C(=O)OCc3ccccc3)CC=C12")
2.4
>>> test_result("COc1ccc(Nc2nc(Nc3ccc(OC)cc3)nc(-n3[nH]c(=O)c(C)c3C)n2)cc1")
4.5
>>> test_result("COc1ccc(/C(O)=C2/C(=O)C(=O)N(CCCN(C)C)C2c2ccccc2)cc1Cl (configuration not stated)")
9.5
>>> test_result("CC1CCCCN1C(=O)C12CCC(C)(/C(=N/O)C1)C2(C)C (configuration not stated)")
-9.3
>>> test_result("O=C(NCc1cccnc1)NC(C(F)(F)F)C(F)(F)F")
-8.9
>>> test_result("c1ccc(N2CCN(c3nc(NCc4ccco4)c4ccccc4n3)CC2)cc1")
2.5
>>> test_result("CN(CCOC(=O)c1ccc2c(c1)OCCO2)Cc1ccccc1")
-9.3
>>> test_result("Cc1ccc2[nH]c3c(N4CCN(Cc5ccc6c(c5)OCO6)CC4)ncnc3c2c1")
18.7
>>> test_result("Clc1ccc(-n2ncc3c(NCc4cccs4)ncnc32)cc1")
18.1
>>> test_result("CC(C)c1cc(NCCN2CCOCC2)n2c(nc3ccccc32)c1C#N")
14.6
>>> test_result("Cc1cc2c(c(=O)n1Cc1ccccn1)C(c1ccc3c(c1)OCO3)C(C#N)=C(N)O2 (configuration not stated)")
-0.2
>>> test_result("CC(=O)CCn1c(=O)n(CCC(C)=O)c(=O)n(CCC(C)=O)c1=O")
4
>>> test_result("CCN(CC)CCCN1C(=O)C(=O)/C(=C(/O)c2ccc(C)cc2)C1c1ccccn1 (configuration not stated)")
-5.6
>>> test_result("CCOc1cccc(C2C(C#N)=C(N)Oc3cc(C)oc(=O)c32)c1OCC (configuration not stated)")
-9.9
>>> test_result("CCOc1ccc(Br)cc1CC(=O)O")
13.6
>>> test_result("CCCCc1ccc(NC(=O)CSC2=C(C#N)C(c3ccco3)C3=C(CCCC3=O)N2)cc1 (configuration not stated)")
-2.5

All figures here come from PubChem BioAssay AID364.
